Test system: Saccharomyces cerevisiae;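 note: PSI is a weighted mean of sequencing reads over stability bins, variants kept only with over 10 reads, mCherry proximal and sfGFP distal, peptide attached via GGGS linker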
RUN_DESCRIPTION: protein stability index of tFT-peptide fusion (C-terminal peptide) (PSI (0-1 scale)); higher = more stable (slower turnover)
CONDITION_CONTEXT: genetic background: wild type; temperature: 30 C
Cut-off 0.7 on protein stability index, inclusive. At or above means Y; below means N.

[
  {
    "RESIDUES": "GRSYCTLVFVWK",
    "QUALITATIVE_LABEL": "N"
  },
  {
    "RESIDUES": "FGLCRSLESRQF",
    "QUALITATIVE_LABEL": "N"
  },
  {
    "RESIDUES": "YFCCFIPFFFDC",
    "QUALITATIVE_LABEL": "N"
  },
  {
    "RESIDUES": "SLTLVCRKYILL",
    "QUALITATIVE_LABEL": "N"
  },
  {
    "RESIDUES": "VSLGNVGYFGSE",
    "QUALITATIVE_LABEL": "Y"
  },
  {
    "RESIDUES": "PVPKAPPCNRRR",
    "QUALITATIVE_LABEL": "N"
  },
  {
    "RESIDUES": "LTSDGGLSGCSL",
    "QUALITATIVE_LABEL": "N"
  },
  {
    "RESIDUES": "STLPPPSSPFHP",
    "QUALITATIVE_LABEL": "Y"
  },
  {
    "RESIDUES": "RVYLLGLFVRSG",
    "QUALITATIVE_LABEL": "N"
  },
  {
    "RESIDUES": "KVSSCLTNFILV",
    "QUALITATIVE_LABEL": "N"
  },
  {
    "RESIDUES": "SRHIFAPFGLFG",
    "QUALITATIVE_LABEL": "Y"
  }
]
